The entries below are paired with their reported Aphis craccivora Mortality (%).
- Tested on: Aphis craccivora
- experiment.notes: whole plant or invertebrate
- Format: in vivo
- experimental.setup: 500 ppm; wingless adults, immersion 5 seconds, counted after 24 hours
The reply should contain only the number, in %.

Consider the compound COC(=O)CC1(C(=O)OC)Nc2c([S+]([O-])C(F)(F)F)c(C#N)nn2-c2ccc(C(F)(F)F)c(Cl)c21 (stereo not drawn) tested on Aphis craccivora; state its Aphis craccivora Mortality (%).
100

Please tell me the measured Aphis craccivora Mortality (%) for N#CCC1Nc2c([S+]([O-])C(F)(F)F)c(C#N)nn2-c2cncc(Cl)c21 (stereo not drawn) ; system: Aphis craccivora.
100

Provide Aphis craccivora Mortality (%), system Aphis craccivora, entry COC(=O)CC1(C(=O)OC)Nc2c([S+](C)[O-])c(C#N)nn2-c2c(Cl)cc(C(F)(F)F)cc21 (stereo not drawn)
99

Please look at CCCCOC(=O)CC1(C(=O)OCCCC)Nc2c([S+]([O-])C(F)(F)F)c(C#N)nn2-c2c(Cl)cc(C(F)(F)F)cc21 (stereo not drawn) and tell me its recorded Aphis craccivora Mortality (%) on Aphis craccivora.
99

Find Aphis craccivora Mortality (%) for COC(=O)CC1(C(=O)OC)Nc2c(C#N)c(C(F)(F)F)nn2-c2cncc(Cl)c21 (stereo not drawn) on Aphis craccivora and write it down.
100

Write down the reported Aphis craccivora Mortality (%) (system: Aphis craccivora) of COC(=O)C1(CC(N)=O)Nc2c([S+]([O-])C(F)(F)F)c(C#N)nn2-c2c(Cl)cc(C(F)(F)F)cc21 (stereo not drawn)
100

For Aphis craccivora, give the measured Aphis craccivora Mortality (%) of the entry N#CCC1(C(F)(F)F)Nc2c([S+]([O-])C(F)(F)F)c(C#N)nn2-c2c(Cl)cc(C(F)(F)F)cc21 (stereo not drawn)
99

System Aphis craccivora. Read-out Aphis craccivora Mortality (%). Item N#Cc1nn2c(c1[S+]([O-])C(F)(F)F)NC(C#N)(CC(F)(F)F)c1cc(C(F)(F)F)cc(Cl)c1-2 (stereo not drawn) . Report value.
100

Report Aphis craccivora Mortality (%) from Aphis craccivora testing of COC(=O)C1(CC(C)=O)Nc2c([S+]([O-])C(F)(F)F)c(C#N)nn2-c2c(Cl)cc(C(F)(F)F)cc21 (stereo not drawn)
100

Give Aphis craccivora Mortality (%) for this entry on Aphis craccivora: COC(=O)CC1(C(=O)OC)Nc2c(C#N)c(C(F)(F)F)nn2-c2cc(C(F)(F)F)cc(Cl)c21 (stereo not drawn)
100

GET Aphis craccivora Mortality (%) | system: Aphis craccivora | item: N#Cc1nn2c(c1[S+]([O-])C(F)(F)F)NC(CC(=O)C(F)(F)F)(C(=O)C(F)(F)F)c1cc(C(F)(F)F)cc(Cl)c1-2 (stereo not drawn)
100

State Aphis craccivora Mortality (%) (Aphis craccivora) of CC(=O)C1(CC(=O)C(F)(F)F)Nc2c([S+]([O-])C(F)(F)F)c(C#N)nn2-c2cncc(Cl)c21 (stereo not drawn) .
99

// fetch Aphis craccivora Mortality (%) for [O-][S+](c1c(C(F)(F)F)nn2c1NC(Br)c1c(Cl)cncc1-2)C(F)(F)F (stereo not drawn) ; system: Aphis craccivora
100

Send back Aphis craccivora Aphis craccivora Mortality (%) of CCOC(=O)C1(CC(=O)OC(C(F)(F)F)C(F)(F)F)Nc2c([S+]([O-])C(F)(F)F)c(C#N)nn2-c2c(Cl)cc(C(F)(F)F)cc21 (stereo not drawn) only.
100

Provide Aphis craccivora Mortality (%), recorded with Aphis craccivora, of COC(=O)C1(CC(=O)OCC(F)F)Nc2c([S+]([O-])C(F)(F)F)c(C#N)nn2-c2c(C(F)(F)F)ccc(Cl)c21 (stereo not drawn)
100

---

- Test system: Solenopsis invicta
- experiment.notes: whole plant or invertebrate
- Assay type: in vivo
- experimental.setup: Solenopsis invicta, 24 h, read-out: Solenopsis invicta Mortality (%) 100 ppm 24 h, 100 ppm; 24 h; water test tube poison-feeding
reported.property: mortality at 100 ppm (%)
Numbers only here, please. The scale is %.

COC(=O)C1(CC#N)Nc2c([S+]([O-])C(F)(F)F)c(C#N)nn2-c2c(Cl)cc(C(F)(F)F)cc21 (stereo not drawn)	34
Nc1ccc2c(c1)-n1nc(C(F)(F)F)c(SC(F)(F)F)c1NC2(C(F)(F)F)C(F)(F)F	20
N#Cc1cnn2c1NC(N)(CN)c1ccc(Cl)cc1-2 (stereo not drawn)	34
CNC(=O)Nc1c(C#N)nn2c1NC(C)(C)c1ccccc1-2	20
N#Cc1nn2c(c1[S+]([O-])C(F)(F)F)NC(CC(F)(F)F)(C(O)CO)c1cc(C(F)(F)F)cc(Cl)c1-2 (stereo not drawn)	27
CN1CCN(C(=O)C2(CC#N)Nc3c([S+]([O-])C(F)(F)F)c(C#N)nn3-c3c(Cl)cc(C(F)(F)F)cc32)CC1 (stereo not drawn)	40

Tell me its mortality at 100 ppm given CNC(=O)C1(CC#N)Nc2c([S+](C)[O-])c(C(C)=O)nn2-c2c(Cl)cc(C(F)(F)F)cc21 (stereo not drawn) as the entry.
25

---

- Test system: Bombyx mori L.
- experiment.notes: Toxicity test on 2nd-instar larvae of Bombyx mori L., leaf immersion feeding method
- Assay type: in vivo
- experimental.setup: 1000 ppm, 24 hours
- From the text: (1) Toxicity Test on 2nd-Instar Larvae of Bombyx mori L. Bombyx mori L. is an important economic insect sensitive to pesticides in an agricultural ecosystem, and is also one of the non-target organisms of environmental ecology listed in pesticide registration of China. The 2nd-instar larvae of Bombyx mori L. were used as test objects and tested by using a leaf immersion feeding method. […]
reported.property: Toxicity determination Bombyx mori L. Mortality (%)
Supply the numeric figure in %, leaving out any unit text.

C=CC1(C(F)(F)F)Nc2cc(C#N)nn2-c2c(Cl)cc(C(F)(F)F)cc21 (stereo not shown)	12
CNC(=O)C1(CC(=O)OC)Nc2c([S+]([O-])C(F)(F)F)c(C#N)nn2-c2c(Cl)cc(C(F)(F)F)cc21 (stereo not shown)	4
N#Cc1nn2c(c1[S+]([O-])C(F)(F)F)NC(CC(N)=O)(C(N)=O)c1cc(C(F)(F)F)cc(Cl)c1-2 (stereo not shown)	4

Okay, next one:
Supply recorded Toxicity determination Bombyx mori L. Mortality (%) for N#CCC1(CO)Nc2c([S+]([O-])C(F)(F)F)c(C#N)nn2-c2c(Cl)cc(C(F)(F)F)cc21 (stereo not shown) here.
11

---

- System: Solenopsis invicta
- experiment.notes: whole plant or invertebrate
- Type: in vivo
- experimental.setup: 100 ppm; 72 h; water test tube poison-feeding
- Text: (4) Insecticidal Activity on Solenopsis invicta. As a hymenoptera pests and a social insect, Solenopsis invicta is one of the most destructive invasive organisms. Solenopsis invicta were used as test objects and tested by using a water test tube poison-feeding method. […]
Form field: Solenopsis invicta Mortality (%) 72 h (one value per entry).
Write down the numeric answer in % and omit the unit.

Dear colleague, please send me the reported Solenopsis invicta Mortality (%) 72 h for CNC(=O)C1Nc2c([S+]([O-])C(F)(F)F)c(C(F)(F)F)nn2-c2cncc(Cl)c21 (stereo not drawn) when you can.
90

Name the recorded Solenopsis invicta Mortality (%) 72 h of the molecule listed here: N#Cc1nn2c(c1[S+]([O-])C(F)(F)F)NC(CC(=O)C(F)(F)F)c1c(Cl)cncc1-2 (stereo not drawn)
100

Read off the recorded Solenopsis invicta Mortality (%) 72 h for COC(=O)CC1(C(=O)OC)Nc2c([S+]([O-])C(F)(F)F)c(C#N)nn2-c2c(C(F)(F)F)ccc(Cl)c21 (stereo not drawn)
100

Could you please provide reported Solenopsis invicta Mortality (%) 72 h for COC(=O)CC1(C(=O)C(F)(F)F)Nc2c([S+]([O-])C(F)(F)F)c(C#N)nn2-c2cncc(Cl)c21 (stereo not drawn) ? Thanks!
100

Tell me measured Solenopsis invicta Mortality (%) 72 h for COC(=O)C1(CC(=O)OCC(F)(F)F)Nc2c([S+]([O-])C(F)(F)F)c(C#N)nn2-c2c(Cl)cc(C(F)(F)F)cc21 (stereo not drawn) please.
100

Answer with reported Solenopsis invicta Mortality (%) 72 h of O=C(CC1Nc2c([S+]([O-])C(F)(F)F)c(C(F)(F)F)nn2-c2c(Cl)cc(C(F)(F)F)cc21)C(F)(F)F (stereo not drawn)
93

Read the entry N#Cc1nn2c(c1[S+]([O-])C(F)(F)F)NC(Cl)c1c(Cl)cncc1-2 (stereo not drawn) and write its reported Solenopsis invicta Mortality (%) 72 h.
90

Give the measured Solenopsis invicta Mortality (%) 72 h for CC=CC1Nc2c([S+]([O-])C(F)(F)F)c(C#N)nn2-c2cncc(Cl)c21 (stereo not drawn)
97

Assign Solenopsis invicta Mortality (%) 72 h to the following record: CC(=O)C1(CBr)Nc2c([S+]([O-])C(F)(F)F)c(C#N)nn2-c2cncc(Cl)c21 (stereo not drawn)
100

Given the molecule N#Cc1nn2c(c1[S+]([O-])C(F)(F)F)NC(Cc1ccccc1)(C(=O)C(F)(F)F)c1c(Cl)cc(C(F)(F)F)cc1-2 (stereo not drawn) , write its reported Solenopsis invicta Mortality (%) 72 h.
100

Hello, please tell me recorded Solenopsis invicta Mortality (%) 72 h for this one: N#Cc1nn2c(c1[S+]([O-])C(F)(F)F)NC(Cc1ccccc1)(C(=O)C(F)(F)F)c1cc(C(F)(F)F)cc(Cl)c1-2 (stereo not drawn)
100

Indicate its recorded Solenopsis invicta Mortality (%) 72 h; the molecule in question is [O-][S+](c1c(C(F)(F)F)nn2c1NC(C(F)(F)F)c1cc(C(F)(F)F)cc(Cl)c1-2)C(F)(F)F (stereo not drawn)
100

Provide only the value of recorded Solenopsis invicta Mortality (%) 72 h for N#Cc1nn2c(c1[S+]([O-])C(F)(F)F)NC(CC(F)(F)F)(C(F)(F)F)c1cc(C(F)(F)F)cc(Cl)c1-2 (stereo not drawn)
100

Give reported Solenopsis invicta Mortality (%) 72 h value for COC(=O)CC1(C(=O)OC)Nc2c([S+]([O-])C(F)(F)F)c(CN)nn2-c2c(Cl)cc(C(F)(F)F)cc21 (stereo not drawn)
77

Give recorded Solenopsis invicta Mortality (%) 72 h. N#Cc1nn2c(c1[S+]([O-])C(F)(F)F)NC(CC(F)(F)F)c1cc(C(F)(F)F)cc(Cl)c1-2 (stereo not drawn)
100
